# target_under_test: recombinant USP30 (amino acids 57-517 of the human sequence) (Homo sapiens (Human), UniProt Q70CQ3)
# Sequence (Q70CQ3 57-517): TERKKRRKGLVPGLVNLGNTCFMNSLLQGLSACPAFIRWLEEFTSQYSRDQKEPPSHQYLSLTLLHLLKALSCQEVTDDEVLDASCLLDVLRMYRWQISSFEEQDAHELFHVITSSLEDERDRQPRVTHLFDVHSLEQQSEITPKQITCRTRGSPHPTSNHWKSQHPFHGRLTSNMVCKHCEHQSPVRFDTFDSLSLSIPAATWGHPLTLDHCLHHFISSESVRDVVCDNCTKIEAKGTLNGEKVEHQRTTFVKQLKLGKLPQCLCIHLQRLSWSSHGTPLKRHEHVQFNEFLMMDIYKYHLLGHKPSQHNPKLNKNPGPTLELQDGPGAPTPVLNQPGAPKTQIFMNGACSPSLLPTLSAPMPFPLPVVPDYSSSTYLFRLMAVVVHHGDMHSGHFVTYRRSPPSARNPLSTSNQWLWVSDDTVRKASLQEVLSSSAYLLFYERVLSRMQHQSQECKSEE
# protocol_details: In vitro USP30 biochemical assay (Ubiquitin-Rhodamine substrate)
# assay_setup: 1.5 nM recombinant USP30, 25 nM Ubiquitin-Rhodamine, fluorescence
# IC50 values compiled below
observable: IC50

compound	observable	experimental_result
CO[C@@H]1C[C@@H](C(=O)Nc2ccc(S(=O)(=O)N[C@@H]3CCOC3)cc2)N(C(=O)c2ccc(F)cc2)C1 [Compound I-277]	IC50	0.05 to 1 µM
O=C(Nc1ccc(S(=O)(=O)N[C@@H]2CCOC2)nc1)[C@@H]1C[C@@H](c2ccccc2)CN1C(=O)c1ccc(F)cc1 [Compound I-270]	IC50	1 to 10 µM
COc1cc(NC(=O)[C@H](CC2CCNCC2)NC(=O)c2ccc(F)cc2)ccc1S(=O)(=O)NC1CCOCC1 [Compound I-135]	IC50	0.05 to 1 µM
CC(C)(CF)NS(=O)(=O)c1ccc(NC(=O)[C@H](Cc2ccccn2)NC(=O)c2ccc(F)cc2)cc1 [Compound I-213]	IC50	0.05 to 1 µM
COc1cc(NC(=O)[C@H](CC2CCN(C)CC2)NC(=O)c2ccc(F)cc2)ccc1S(=O)(=O)NC1COC1 [Compound I-96]	IC50	0.05 to 1 µM
CC(C)(CN1CCOCC1)NS(=O)(=O)c1ccc(NC(=O)[C@@H](NC(=O)c2ccc(F)cc2)C2CC2)cc1 [Compound I-53]	IC50	1 to 10 µM
C[C@@H](CO)NS(=O)(=O)c1ccc(NC(=O)[C@H](Cc2ccccc2)NC(=O)c2ccc(F)cc2)cn1 [Compound I-149]	IC50	0.05 to 1 µM

Where do the numbers come from? From patent US20250162989A1.
